- Target or system: 20S constitutive proteasome CT-L (β5) (Homo sapiens, UniProt P20618+P28074)
- Assay info: In vitro proteasome activity assay, constitutive proteasome CT-L activity
Quantity: Ki (nM)

CC(C)[C@H](NC(=O)c1cnccn1)C(=O)N[C@H]1CSCCNC(=O)/C=C/[C@H](C)NC1=O 1220

I. CCCCCCCCCCCCNC(=O)N[C@H](C(=O)N[C@H]1CSCCNC(=O)/C=C/[C@H](C)NC1=O)C(C)C
II. CC(C)Cc1ccc([C@H](C)C(=O)N[C@H](C(=O)N[C@H]2CSCCNC(=O)/C=C/[C@H](C)NC2=O)C(C)C)cc1
Quick check, higher Ki between I and II ? To answer, give the label that identifies your chosen option. II
(II: 910 nM, I: 280 nM)

---

- Target or system: 20S constitutive proteasome T-L (β2) (Homo sapiens, UniProt P49720+Q99436)
- Assay info: In vitro proteasome activity assay, constitutive proteasome T-L activity
Quantity: Ki (nM)

CC(C)Cc1ccc([C@H](C)C(=O)N[C@H](C(=O)N[C@H]2CSCCNC(=O)/C=C/[C@H](C)NC2=O)C(C)C)cc1 1070

A. CCCCCCCCCCCCNC(=O)N[C@H](C(=O)N[C@H]1CSCCNC(=O)/C=C/[C@H](C)NC1=O)C(C)C
B. CC(C)[C@H](NC(=O)c1cnccn1)C(=O)N[C@H]1CSCCNC(=O)/C=C/[C@H](C)NC1=O
Record comparison, field Ki: mark the lower of A and B . Answer = label. B
(B: 920 nM, A: 1760 nM)

---

- Target or system: immunoproteasome T-L (β2) (Homo sapiens, UniProt P40306+P49720)
- Assay info: In vitro proteasome activity assay, immunoproteasome T-L activity
Quantity: Ki (nM)

CC(C)[C@H](NC(=O)c1cnccn1)C(=O)N[C@H]1CSCCNC(=O)/C=C/[C@H](C)NC1=O 750

P. CCCCCCCCCCCCNC(=O)N[C@H](C(=O)N[C@H]1CSCCNC(=O)/C=C/[C@H](C)NC1=O)C(C)C
Q. CC(C)Cc1ccc([C@H](C)C(=O)N[C@H](C(=O)N[C@H]2CSCCNC(=O)/C=C/[C@H](C)NC2=O)C(C)C)cc1
Sort P and Q by Ki descending and give the first. Write the label of whichever entry you select. P
